# subject.of.test: human LOXL2 (Homo sapiens (Human), UniProt Q9Y4K0)
# Sequence (Q9Y4K0 26-774): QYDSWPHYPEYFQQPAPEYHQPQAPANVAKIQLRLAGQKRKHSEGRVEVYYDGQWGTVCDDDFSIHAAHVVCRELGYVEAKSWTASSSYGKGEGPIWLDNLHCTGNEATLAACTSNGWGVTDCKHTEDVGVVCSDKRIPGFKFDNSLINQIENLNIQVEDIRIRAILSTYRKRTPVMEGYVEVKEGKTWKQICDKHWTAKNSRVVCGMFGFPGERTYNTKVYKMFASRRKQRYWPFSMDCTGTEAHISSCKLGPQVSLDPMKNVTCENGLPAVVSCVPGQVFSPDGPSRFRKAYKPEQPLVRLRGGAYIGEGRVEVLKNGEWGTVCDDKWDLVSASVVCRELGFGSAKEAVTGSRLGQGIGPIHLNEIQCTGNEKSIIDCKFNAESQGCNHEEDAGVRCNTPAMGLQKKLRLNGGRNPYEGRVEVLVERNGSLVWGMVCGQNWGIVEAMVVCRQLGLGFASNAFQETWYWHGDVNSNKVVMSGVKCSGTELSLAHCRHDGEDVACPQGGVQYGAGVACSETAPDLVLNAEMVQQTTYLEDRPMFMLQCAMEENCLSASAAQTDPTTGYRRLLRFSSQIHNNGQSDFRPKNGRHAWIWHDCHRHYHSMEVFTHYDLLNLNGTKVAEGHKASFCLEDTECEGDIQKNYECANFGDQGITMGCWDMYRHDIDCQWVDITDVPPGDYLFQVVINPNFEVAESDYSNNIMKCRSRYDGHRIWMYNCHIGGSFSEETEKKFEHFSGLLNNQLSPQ
# method.summary: Human LOXL2 Amine Oxidase Activity Assay (Amplex Red fluorescence)
# Assay type: biochemical
# conditions.used: concentrated conditioned media from CHO cells stably expressing human LOXL2; 2 h at 37° C. preincubation; DAP substrate; read-out: IC50
Where a name gives a salt, the structure may show the parent alone.
property.name: IC50

compound="NCc1ccnc(Oc2cccc(C(=O)NCc3ccc(C(=O)O)cc3)c2)c1 [Compound 1-34, hydrochloride]" experimental_result="< 300 nM"
compound="NCc1ccnc(Oc2cccc3c2CCC(=O)N3Cc2ccc(F)cc2F)c1 [Compound 2-36, hydrochloride]" experimental_result="< 300 nM"
compound=NCc1ccnc(Oc2ccccc2C(F)(F)F)c1 experimental_result="< 300 nM"
compound=NCc1ccncc1F experimental_result="300 to 1000 nM"

Just for reference, patent US11358936B2 is where these values come from.
